Assay system F1F0-ATPase (Bos taurus, UniProt P13621); read-out recorded as IC50.

>  <compound>
O=C(Cc1ccc(Cl)cc1)/N=C(\Nc1cc(F)cc(Cl)c1)N[C@H]1CC[C@H](O)CC1 [Compound 71]

>  <test-system>
F1F0-ATPase (Bos taurus, UniProt P13621)

>  <IC50>
< 10 µM

$$$$
>  <compound>
Cc1ccc(C(=O)/N=C(/Nc2cc(F)cc(Cl)c2)NC2CCC(NC(=O)c3ccccc3)CC2)cc1 (centres unmarked) [Compound 148]

>  <test-system>
F1F0-ATPase (Bos taurus, UniProt P13621)

>  <IC50>
< 10 µM

$$$$
>  <compound>
CCOC(=O)N[C@H]1CC[C@H](N/C(=N\C(=O)c2ccc(F)c(F)c2)NC2(C)CCC2)CC1 [Compound 106]

>  <test-system>
F1F0-ATPase (Bos taurus, UniProt P13621)

>  <IC50>
> 10 µM

$$$$
>  <compound>
CC1(N/C(=N/C(=O)c2ccc(C(F)(F)F)cc2)N[C@H]2CC[C@H](Nc3ncccn3)CC2)CCCC1 [Compound 121]

>  <test-system>
F1F0-ATPase (Bos taurus, UniProt P13621)

>  <IC50>
< 10 µM

$$$$
>  <compound>
O=C(/N=C(/Nc1cc(F)cc(Cl)c1)N[C@H]1CC[C@H](NC(=O)N2CCCC2)CC1)c1ccc(F)c(F)c1 [Compound 137]

>  <test-system>
F1F0-ATPase (Bos taurus, UniProt P13621)

>  <IC50>
< 10 µM

$$$$
>  <compound>
CC(C)(C)CN/C(=N/C(=O)c1ccc(F)c(F)c1)N[C@H]1CC[C@H](NC(=O)c2ccccc2)CC1 [Compound 142]

>  <test-system>
F1F0-ATPase (Bos taurus, UniProt P13621)

>  <IC50>
< 10 µM

$$$$
>  <compound>
CCOC(=O)N[C@H]1CC[C@H](N/C(=N\C(=O)c2ccc(F)c(F)c2)Nc2cc(C(C)(C)C)on2)CC1 [Compound 80]

>  <test-system>
F1F0-ATPase (Bos taurus, UniProt P13621)

>  <IC50>
> 10 µM

$$$$
>  <compound>
CCOC(=O)N[C@H]1CC[C@H](N/C(=N\C(=O)c2ccc(F)c(F)c2)NCc2ccc(C(F)(F)F)cc2)CC1 [Compound 52]

>  <test-system>
F1F0-ATPase (Bos taurus, UniProt P13621)

>  <IC50>
< 10 µM

$$$$
>  <compound>
CCOC(=O)N[C@H]1CC[C@H](N/C(=N\C(=O)c2ccc(F)c(F)c2)NC2CCCC2)CC1 [Compound 109]

>  <test-system>
F1F0-ATPase (Bos taurus, UniProt P13621)

>  <IC50>
> 10 µM

$$$$
>  <compound>
CCOC(=O)N[C@H]1CC[C@H](N/C(=N\C(=O)c2ccc(F)c(F)c2)Nc2ccc(F)c(Cl)c2)CC1 [Compound 81]

>  <test-system>
F1F0-ATPase (Bos taurus, UniProt P13621)

>  <IC50>
< 10 µM

$$$$
>  <compound>
CCOC(=O)NC1CCC(N/C(=N\C(=O)c2ccc(F)c(S(C)(=O)=O)c2)Nc2cc(F)cc(Cl)c2)CC1 (centres unmarked) [Compound 146]

>  <test-system>
F1F0-ATPase (Bos taurus, UniProt P13621)

>  <IC50>
> 10 µM

$$$$
>  <compound>
O=C(/N=C(/Nc1cc(F)cc(Cl)c1)N[C@H]1CC[C@H](Nc2ncccn2)CC1)c1ccc(Cl)cc1 [Compound 118]

>  <test-system>
F1F0-ATPase (Bos taurus, UniProt P13621)

>  <IC50>
< 10 µM

$$$$
>  <compound>
O=C(/N=C(/NC1CCCCC1)N[C@H]1CC[C@H](Nc2ncccn2)CC1)c1ccc(F)c(F)c1 [Compound 87]

>  <test-system>
F1F0-ATPase (Bos taurus, UniProt P13621)

>  <IC50>
< 10 µM

$$$$
>  <compound>
O=C(/N=C(/Nc1ccccc1C1CC1)N[C@H]1CC[C@H](Nc2ncccn2)CC1)c1ccc(F)c(F)c1 [Compound 67]

>  <test-system>
F1F0-ATPase (Bos taurus, UniProt P13621)

>  <IC50>
< 10 µM

$$$$
>  <compound>
CCOC(=O)N[C@H]1CC[C@H](N/C(=N\C(=O)c2ccc(F)c(F)c2)NCc2ccccc2C(F)(F)F)CC1 [Compound 50]

>  <test-system>
F1F0-ATPase (Bos taurus, UniProt P13621)

>  <IC50>
< 10 µM

$$$$
>  <compound>
CCOC(=O)N[C@H]1CC[C@H](N/C(=N\C(=O)c2ccc(F)c(F)c2)NCc2ccccc2Cl)CC1 [Compound 47]

>  <test-system>
F1F0-ATPase (Bos taurus, UniProt P13621)

>  <IC50>
< 10 µM

$$$$
>  <compound>
O=C(/N=C(/Nc1cccc(Cl)c1)N[C@H]1CC[C@H](NC(=O)c2cnccn2)CC1)c1ccc(F)c(F)c1 [Compound 131]

>  <test-system>
F1F0-ATPase (Bos taurus, UniProt P13621)

>  <IC50>
< 10 µM

$$$$
>  <compound>
O=C1CCC(N/C(=N\C(=O)c2ccc(C(F)(F)F)cc2)Nc2cc(F)cc(Cl)c2)CC1 [Compound 172]

>  <test-system>
F1F0-ATPase (Bos taurus, UniProt P13621)

>  <IC50>
< 10 µM

$$$$
>  <compound>
O=C(/N=C(/Nc1cc(F)cc(Cl)c1)N[C@H]1CCCC[C@@H]1O)c1ccc(F)c(F)c1 [Compound 129]

>  <test-system>
F1F0-ATPase (Bos taurus, UniProt P13621)

>  <IC50>
< 10 µM

$$$$
>  <compound>
O=C(/N=C(/Nc1ccccc1C1CC1)N[C@H]1CC[C@H](O)CC1)c1ccc(Cl)cc1 [Compound 22]

>  <test-system>
F1F0-ATPase (Bos taurus, UniProt P13621)

>  <IC50>
> 10 µM

$$$$
>  <compound>
O=C(/N=C(/NCc1ccc(F)cc1Cl)N[C@H]1CC[C@H](O)CC1)c1ccc(F)c(F)c1 [Compound 43]

>  <test-system>
F1F0-ATPase (Bos taurus, UniProt P13621)

>  <IC50>
> 10 µM

$$$$
>  <compound>
CCOC(=O)N[C@H]1CC[C@H](N/C(=N\C(=O)c2ccc(F)c(F)c2)NCc2ccc(Cl)cc2F)CC1 [Compound 63]

>  <test-system>
F1F0-ATPase (Bos taurus, UniProt P13621)

>  <IC50>
< 10 µM

$$$$
>  <compound>
CC1(N/C(=N/C(=O)c2ccc(C(F)(F)F)cc2)N[C@H]2CC[C@H](Nc3ncccn3)CC2)CCC1 [Compound 113]

>  <test-system>
F1F0-ATPase (Bos taurus, UniProt P13621)

>  <IC50>
< 10 µM

$$$$
>  <compound>
O=C(/N=C(/Nc1ccc(F)c(Cl)c1)N[C@H]1CC[C@H](Nc2ncccn2)CC1)c1ccc(F)c(F)c1 [Compound 83]

>  <test-system>
F1F0-ATPase (Bos taurus, UniProt P13621)

>  <IC50>
< 10 µM

$$$$
>  <compound>
CCOC(=O)N[C@H]1CC[C@H](N/C(=N\C(=O)c2ccc(F)c(F)c2)NC2CCC(F)(F)CC2)CC1 [Compound 95]

>  <test-system>
F1F0-ATPase (Bos taurus, UniProt P13621)

>  <IC50>
< 10 µM

$$$$
>  <compound>
CCOC(=O)N[C@H]1CC[C@H](N/C(=N\C(=O)c2ccc(F)c(F)c2)NCc2ccc(F)c(Cl)c2)CC1 [Compound 61]

>  <test-system>
F1F0-ATPase (Bos taurus, UniProt P13621)

>  <IC50>
< 10 µM

$$$$
>  <compound>
O=C(/N=C(/Nc1cccc(Cl)c1)N[C@H]1CC[C@H](O)CC1)c1ccc(C(F)(F)F)cc1 [Compound 8]

>  <test-system>
F1F0-ATPase (Bos taurus, UniProt P13621)

>  <IC50>
< 10 µM

$$$$
>  <compound>
O=C(/N=C(/Nc1cccc(Cl)c1F)N[C@H]1CC[C@H](Nc2ncccn2)CC1)c1ccc(F)c(F)c1 [Compound 84]

>  <test-system>
F1F0-ATPase (Bos taurus, UniProt P13621)

>  <IC50>
< 10 µM

$$$$
>  <compound>
CCOC(=O)N[C@H]1CCC[C@@H](N/C(=N\C(=O)c2ccc(F)c(F)c2)Nc2cc(F)cc(Cl)c2)C1 [Compound 125]

>  <test-system>
F1F0-ATPase (Bos taurus, UniProt P13621)

>  <IC50>
< 10 µM

$$$$

Data credit: patent US9169199B2
